From: PubChem BioAssay (NCI)

Reported values of growth for individual entries
test system: SK-MEL-2 melanoma; assay: NCI-60 one-dose screen, 48 h (100 = growth as untreated, 0 = no growth, -100 = all killed); details: 10 µM unless noted
About 83,000 compounds went through this panel and 20% of them were active in at least one assay; those are over-represented in the sample as a whole.
Write it as a number; the unit % goes unstated.

These recorded examples may help you get a feel for the data.
C=C1CC[C@@H]2[C@]3(C)COC(c4ccccc4)O[C@@H]3CC[C@@]2(C)[C@@H]1C/C=C1/C(=O)OC[C@H]1O (stereo partly drawn)    93.3
N=c1c2cc(-c3ccccc3)oc2ncn1/N=C/c1ccc(Br)cc1    104
Cc1nc(-c2ccccc2O)ccc1C(=O)N=Nc1c(O)[nH]c2ccc(Br)cc12    104
C#C[C@]1(O)CC[C@H]2[C@@H]3CC=C4c5sc(-c6ccc7c(c6)OCO7)nc5CC[C@]4(C)[C@H]3CC[C@@]21C    28.9
Cn1ccnc1C(=O)/C=C/c1ccc(NC(=O)c2c(F)c(F)c(F)c(F)c2F)cc1    112
COc1cc(Nc2c(C#N)cnn3cc(-c4cnn(CC(C)(C)O)c4)cc23)ccc1Cl    61.1
NS(=O)(=O)c1ccc(Nc2nc(N/N=C/c3ccc(Cl)cc3)nc(Nc3ccccc3)n2)cc1    81.7
CCNC(=O)N1CCc2cc(OC)c(OCCc3ccc(OC)cc3)cc2C1c1ccc([N+](=O)[O-])cc1C (stereo not drawn)    22.3
Cc1nc2ncc(-c3ccc4ncnc(NCc5ccccc5)c4c3)cc2[nH]1    74
CC(=O)N1N=C(c2cccc(-n3cccc3)c2)CC1c1cccc(F)c1 (stereo not drawn)    103

Form field: reported growth of O=C1[C@H]2Cc3c([nH]c4ccccc34)[C@@H](c3ccc(Br)cc3)N2C(=O)CN1C1CCN(CC2CCCCC2)CC1
16.7

Form field: reported growth of O=C(Cn1cc[n+](CC(=O)c2ccc(-c3ccccc3)cc2)c1)Nc1cccc2cccnc12
83
